Origin of the recorded values: paper PMC7673538

Test system: CV-B3
testMethodNotes: microbe, parasite or virus in culture
Assay type: cell-based, coxsackievirus B3
measurementSetup: Enterovirus B, CVB3, HeLa R19, read-out: CV-B3 Exp2 EC50
Please use Yes for EC50 under 1000 nM and No for everything else, ties included.

COc1ccc(N(Cc2ccc(F)cc2)C(=O)c2ccccn2)cc1: No

Field: below-cutoff. Rule: recorded EC50 strictly less than 1000 nM. Subject: COc1ccc(N(Cc2ccc(F)cc2)C(=O)c2ccc[nH]2)cc1 No

A record lists COc1ccc(N(Cc2ccc(F)cc2)S(=O)(=O)c2ccco2)cc1 . Is its EC50 below 1000 nM? No

# strict comparison: is reported EC50 < 1000 nM? input = CNCC(=O)N(Cc1ccc(F)cc1)c1ccc(OC)cc1 No

Threshold test, EC50 < 1000 nM: COc1ccc(N(Cc2ccc(F)cc2)C(=O)c2cc[nH]c2)cc1 [Compound 12a] Yes

Does this molecule meet the criterion EC50 < 1000 nM? COc1ccc(N(Cc2ccc(F)cc2)Cc2ccco2)cc1 No

Please determine if COc1ccc(N(Cc2ccc(F)cc2)C(=O)c2ccco2)cc1 is below 1000 nM in terms of EC50. No

Quick check: EC50 of O=C(c1ccco1)N(Cc1ccc(C(F)(F)F)cc1)c1ccccc1 [Compound 19d] under 1000 nM? Yes

Please let me know if Cc1ccc(CN(C(=O)c2ccco2)c2ccccc2)cc1 [Compound 19g] shows EC50 below 1000 nM. Yes

###

Form field: NET, Mean as % (Figure 8B) (one value per entry).
testSystem: human NET (Homo sapiens)
Construct: expressed in transfected cells; host or cells: HEK293 (gift of Dr. Hoener, F. Hoffmann-La Roche)
Sequence (P23975 whole entry): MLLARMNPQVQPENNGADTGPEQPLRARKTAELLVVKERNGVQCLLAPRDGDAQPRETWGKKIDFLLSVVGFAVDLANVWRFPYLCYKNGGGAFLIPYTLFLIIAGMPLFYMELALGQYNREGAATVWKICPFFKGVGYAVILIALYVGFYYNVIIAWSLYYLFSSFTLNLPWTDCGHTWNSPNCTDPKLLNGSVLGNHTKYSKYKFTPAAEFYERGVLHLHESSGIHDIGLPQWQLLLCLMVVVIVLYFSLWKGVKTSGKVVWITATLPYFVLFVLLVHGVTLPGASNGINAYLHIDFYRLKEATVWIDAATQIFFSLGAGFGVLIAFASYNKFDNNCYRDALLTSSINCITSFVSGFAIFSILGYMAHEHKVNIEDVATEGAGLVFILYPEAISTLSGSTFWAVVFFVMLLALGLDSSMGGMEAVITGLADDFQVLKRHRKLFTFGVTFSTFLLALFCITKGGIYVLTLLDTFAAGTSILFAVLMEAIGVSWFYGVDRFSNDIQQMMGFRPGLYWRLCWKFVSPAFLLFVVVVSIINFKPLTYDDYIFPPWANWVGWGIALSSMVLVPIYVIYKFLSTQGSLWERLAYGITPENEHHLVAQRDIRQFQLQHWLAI
Format: cell-based
measurementSetup: 1µM; Control = 100%
Unit % implied. Number only.

Below: 3 compounds and their reported NET, Mean as % (Figure 8B).
O=C(c1cc[nH]c1)N(Cc1ccc(F)cc1)c1ccccc1 [Compound 12b]: 100
COc1ccc(N(Cc2ccc(F)cc2)C(=O)c2cc[nH]c2)cc1 [Compound 12a]: 121
O=C(c1ccco1)N(Cc1ccc(C(F)(F)F)cc1)c1ccccc1 [Compound 19d]: 126

Fill in: human NET (Homo sapiens) NET, Mean as % (Figure 8B) for O=C(c1ccco1)N(Cc1ccc(F)cc1)c1ccccc1 [Compound 19b] = 124

###

testSystem: human DAT (Homo sapiens)
Construct: expressed in transfected cells; host or cells: HEK293 (gift of Dr. Hoener, F. Hoffmann-La Roche)
Sequence (Q01959 whole entry): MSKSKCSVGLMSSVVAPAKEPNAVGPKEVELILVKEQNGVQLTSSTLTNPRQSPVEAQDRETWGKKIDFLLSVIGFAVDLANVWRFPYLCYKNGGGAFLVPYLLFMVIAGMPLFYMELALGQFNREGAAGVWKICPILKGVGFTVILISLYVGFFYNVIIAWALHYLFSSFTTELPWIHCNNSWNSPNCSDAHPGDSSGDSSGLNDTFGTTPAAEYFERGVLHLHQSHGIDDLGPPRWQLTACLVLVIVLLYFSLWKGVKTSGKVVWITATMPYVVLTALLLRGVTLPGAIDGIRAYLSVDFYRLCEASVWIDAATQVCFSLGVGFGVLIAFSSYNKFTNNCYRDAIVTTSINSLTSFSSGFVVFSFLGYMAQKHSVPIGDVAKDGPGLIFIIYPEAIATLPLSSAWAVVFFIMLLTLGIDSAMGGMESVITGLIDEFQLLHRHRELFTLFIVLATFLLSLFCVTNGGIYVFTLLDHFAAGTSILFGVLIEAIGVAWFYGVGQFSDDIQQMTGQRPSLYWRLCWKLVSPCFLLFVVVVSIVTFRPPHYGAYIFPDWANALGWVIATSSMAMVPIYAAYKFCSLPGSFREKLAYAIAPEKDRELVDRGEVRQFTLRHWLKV
Format: cell-based
measurementSetup: 100µM; Control = 100
propertyMeasured: DAT, Mean (Figure 8B)
Answer using only a numeral; do not append any unit.

O=C(c1cc[nH]c1)N(Cc1ccc(F)cc1)c1ccccc1 [Compound 12b]: 90.1253
O=C(c1ccco1)N(Cc1ccc(C(F)(F)F)cc1)c1ccccc1 [Compound 19d]: 90.1191
O=C(c1ccco1)N(Cc1ccc(F)cc1)c1ccccc1 [Compound 19b]: 75.9783

Now look at this one.
Entry under test: COc1ccc(N(Cc2ccc(F)cc2)C(=O)c2cc[nH]c2)cc1 [Compound 12a] . Its DAT, Mean (Figure 8B) was 86.9569

###

testMethodNotes: in vitro
measurementSetup: human, CC50 Experiment 2
propertyMeasured: CC50

According to the records, this molecule COc1ccc(N(Cc2ccc(F)cc2)C(=O)c2ccco2)cc1 displays CC50 of > 30 µM

###

testSystem: human NET (Homo sapiens)
Construct: expressed in transfected cells; host or cells: HEK293 (gift of Dr. Hoener, F. Hoffmann-La Roche)
Assay type: cell-based
measurementSetup: 100µM; Control = 100
propertyMeasured: NET, Mean (Figure 8B)
No unit in the answer, please; the number alone is enough.

Take a look at these entries with their results.
O=C(c1ccco1)N(Cc1ccc(C(F)(F)F)cc1)c1ccccc1 [Compound 19d]: 118.011
COc1ccc(N(Cc2ccc(F)cc2)C(=O)c2cc[nH]c2)cc1 [Compound 12a]: 112.597
O=C(c1cc[nH]c1)N(Cc1ccc(F)cc1)c1ccccc1 [Compound 12b]: 103.417

Here is another molecule to look at.
Per the record, O=C(c1ccco1)N(Cc1ccc(F)cc1)c1ccccc1 [Compound 19b] has NET, Mean (Figure 8B) of 113.384

###

Tested on: EV-D68
testMethodNotes: microbe, parasite or virus in culture
Format: cell-based, enterovirus D68
measurementSetup: Enterovirus D, EVD68, HeLa R19, read-out: Table in Figure 7A, EVD68, AVERAGE
propertyMeasured: EC50 (nM)
Unit nM implied. Number only.

Just so you know, measured EC50 for O=C(c1cc[nH]c1)N(Cc1ccc(F)cc1)c1ccccc1 [Compound 12b] came out at 85.7

###

Tested on: PV-1
testMethodNotes: microbe, parasite or virus in culture
Format: cell-based, poliovirus 1
measurementSetup: Enterovirus C, HeLa R19, read-out: EC50 PV-1 Experiement 3
pEC50: −log10 of the molar value.
propertyMeasured: pEC50

Quick note, pEC50 for COc1ccc(N(Cc2ccc(F)cc2)C(=O)c2ccco2)cc1 landed at < 4.52

###

Tested on: PV-1
testMethodNotes: microbe, parasite or virus in culture
Type: cell-based, poliovirus 1
measurementSetup: Enterovirus C, HeLa R19, read-out: EC50 Exp2
Quick reference for EC50 among some compounds
Field format: number, assumed µM, no unit text.

Cc1ccc(CN(C(=O)c2ccco2)c2ccccc2)cc1 [Compound 19g]: 18.5
O=C(c1ccco1)N(Cc1ccc(F)cc1)c1ccccc1 [Compound 19b]: 9.65
COc1ccc(N(Cc2ccc(F)cc2)C(=O)c2cc[nH]c2)cc1 [Compound 12a]: 3.53

// EC50 value for O=C(c1ccco1)N(Cc1ccc(C(F)(F)F)cc1)c1ccccc1 [Compound 19d] : 22.1

Data point: O=C(c1ccco1)N(Cc1ccccc1)c1ccccc1 [Compound 19a, N-Benzyl-N-phenylfuran-2-carboxamide] ; EC50 = 33.6

###

testMethodNotes: in vitro
measurementSetup: human, Exp 1 CC50 Hap1
propertyMeasured: CC50 (µM)
Give your result in µM as a bare value.

So, O=C(c1ccco1)N(Cc1ccc(S(F)(F)(F)(F)F)cc1)c1ccccc1 [Compound 19f] ? Its CC50 was 61

###

Here the recorded EC50 is given for each entry.
Tested on: CV-B3
testMethodNotes: microbe, parasite or virus in culture
Type: cell-based, coxsackievirus B3
measurementSetup: Enterovirus B, CVB3, HeLa R19, read-out: EC50 Exp1
# value in nM; strip the unit string

O=C(c1ccco1)N(Cc1ccc(F)cc1)c1ccccc1 [Compound 19b]: 220
COc1ccc(N(Cc2ccc(F)cc2)C(=O)c2cc[nH]c2)cc1 [Compound 12a]: 17

We now examine a further compound.
Form: compound = O=C(c1ccco1)N(Cc1ccc(C(F)(F)F)cc1)c1ccccc1 [Compound 19d] ; EC50 = 1040

###

System: EV-A71
testMethodNotes: microbe, parasite or virus in culture
Format: cell-based, enterovirus A71
measurementSetup: Enterovirus A, EVA71, HeLa R19, read-out: EC50 Exp2
propertyMeasured: EC50

Some entries whose results are on file:
Cc1ccc(CN(C(=O)c2ccco2)c2ccccc2)cc1 [Compound 19g]: 0.73 µM
CC(C)c1ccc(CN(C(=O)c2ccco2)c2ccccc2)cc1 [Compound 19h]: 2.1 µM

Response field EC50 (EV-A71) for item O=C(c1ccc[nH]1)N(Cc1ccc(C(F)(F)F)cc1)c1ccccc1 : 1.76 µM

Lab note: compound O=C(c1ccco1)N(Cc1ccc(S(F)(F)(F)(F)F)cc1)c1ccccc1 [Compound 19f] tested on EV-A71; recorded EC50 was 4.87 µM

Item: O=C(c1ccco1)N(Cc1ccccc1)c1ccccc1 [Compound 19a, N-Benzyl-N-phenylfuran-2-carboxamide] | System: EV-A71 | EC50: 3.8 µM

EC50 for EV-A71 with input COc1ccc(N(Cc2ccc(C(F)(F)F)cc2)C(=O)c2ccco2)cc1 [Compound 19e] equals 5.06 µM

###

Catalogue of pEC50 values
Tested on: CV-A24
testMethodNotes: microbe, parasite or virus in culture
Type: cell-based, coxsackievirus A24
measurementSetup: Enterovirus C, CVA24, HeLa R19, read-out: EC50 CV-A24
Here pEC50 is given on a logarithmic scale as minus log10 of the concentration in mol/L.

O=C(c1cc[nH]c1)N(Cc1ccc(F)cc1)c1ccccc1 [Compound 12b]: 5.88

Turning to the following compound.
Data point: O=C(c1ccco1)N(Cc1ccccc1)c1ccccc1 [Compound 19a, N-Benzyl-N-phenylfuran-2-carboxamide] ; pEC50 = 4.67

###

testMethodNotes: in vitro
measurementSetup: human, CC50 Experiement 3
propertyMeasured: CC50

For COc1ccc(N(Cc2ccc(F)cc2)C(=O)c2ccco2)cc1 the molecule record lists CC50 as > 30 µM

###

Tested on: CV-B3
testMethodNotes: microbe, parasite or virus in culture
Format: cell-based, coxsackievirus B3
measurementSetup: Enterovirus B, CVB3, HeLa R19, read-out: EC50 CVB3 Experiment 1
propertyMeasured: pEC50
pEC50 field: float, defined as -log10 of concentration (mol/L).

Summary for this compound, COc1ccc(N(Cc2ccc(F)cc2)C(=O)c2ccco2)cc1 [Compound 1] : pEC50 is 5.76
